# target: human CRTH2 (Homo sapiens, UniProt Q9Y5Y4)
# Construct: expressed in transfected cells; host or cells: CHO-K1
# Sequence (Q9Y5Y4 whole entry): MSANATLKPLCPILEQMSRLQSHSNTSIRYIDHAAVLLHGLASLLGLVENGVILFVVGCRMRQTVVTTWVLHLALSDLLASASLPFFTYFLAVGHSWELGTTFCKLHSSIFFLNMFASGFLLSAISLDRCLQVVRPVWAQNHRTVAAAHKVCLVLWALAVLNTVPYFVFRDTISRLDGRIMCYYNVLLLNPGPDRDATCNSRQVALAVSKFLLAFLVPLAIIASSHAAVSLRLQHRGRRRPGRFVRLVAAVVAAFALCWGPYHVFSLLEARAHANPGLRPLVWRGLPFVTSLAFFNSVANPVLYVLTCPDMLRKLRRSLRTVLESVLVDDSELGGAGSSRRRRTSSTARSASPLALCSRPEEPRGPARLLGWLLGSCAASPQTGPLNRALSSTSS
# procedureText: Human CRTH2 Receptor Binding Assay (whole cell, [3H]ramatroban competition)
# assayContext: CHO-K1 cells expressing human CRTH2 and G-alpha16; 20 nM [3H]ramatroban; 1 hour, room temperature
Entries and their IC50 values follow.
Provide the measurement as a number trailed by its unit.

INSERT INTO measurements (chemicalsmiles, datavalue) VALUES
  ('CCS(=O)(=O)c1cc(F)c(Oc2c(C)c(CC(=O)O)cc3ccc(F)cc23)cc1Cl', '8.2 nM'),
  ('CCS(=O)(=O)c1ccc(Oc2cc(CC(=O)O)c(F)c3ccc(F)cc23)nc1', '21.3 nM'),
  ('CS(=O)(=O)c1cnc(Oc2cc(CC(=O)O)cc3ccc(F)cc23)c(Br)c1', '19.1 nM');

Now consider the entry below.
Lab entry: human CRTH2 (Homo sapiens, UniProt Q9Y5Y4) assay, compound Cc1cc(Oc2cc(CC(=O)O)cc3ccc(F)cc23)ccc1S(C)(=O)=O , IC50 = 3.5 nM
